Where do the numbers come from? From ChEMBL document CHEMBL1146366.

# Tested on: Escherichia coli
# method.description: Genotoxicity in Escherichia coli PQ37 assessed as ratio of beta-galactosidase/AP activity in presence and absence of drug at 10 ug
# Assay type: toxicity, organism-based
Field: Ratio. Provide a value for each of the molecules that follow.
Answer using only a numeral; do not append any unit.

Lab note: c1ccc(-c2nc3c4c(ncn3n2)Oc2ccc3ccccc3c2C4c2ccccc2)cc1 (configuration not stated) gave Ratio of 1.24

Noted for Clc1ccc(C2c3c(ccc4ccccc34)Oc3ncn4nc(-c5ccccc5)nc4c32)cc1 (configuration not stated) : its Ratio reads 1.33

The recorded Ratio for Clc1ccccc1C1c2c(ccc3ccccc23)Oc2ncn3nc(-c4ccccc4)nc3c21 (configuration not stated) is 1.21

# Ratio of Cc1nc2c3c(ncn2n1)Oc1ccc2ccccc2c1C3c1ccccc1 (configuration not stated) = 1.32

Memo: c1ccc(-c2nc3c4c(ncn3n2)Oc2ccc3ccccc3c2C4c2ccco2)cc1 (configuration not stated) , reported Ratio: 1.4

# Ratio of Cc1nc2c3c(ncn2n1)Oc1ccc2ccccc2c1C3C(C)C (configuration not stated) = 1.1

Entry CC(C)C1c2c(ccc3ccccc23)Oc2ncn3nc(-c4ccccc4)nc3c21 (configuration not stated) ; Ratio = 1.19

* * *

# Test system: Escherichia coli
# method.description: Genotoxicity in Escherichia coli PQ37 assessed as ratio of beta-galactosidase/AP activity in presence and absence of drug at 2 ug
# Format: toxicity, organism-based
parameter.measured: Ratio
Just the number, please, no unit after it.

The molecule listed as c1ccc(-c2nc3c4c(ncn3n2)Oc2ccc3ccccc3c2C4c2ccccc2)cc1 (configuration not stated) shows Ratio equal to 1.02

molecule Cc1nc2c3c(ncn2n1)Oc1ccc2ccccc2c1C3C(C)C (configuration not stated) , Ratio observed: 1.01

Ratio reported for this molecule Clc1ccccc1C1c2c(ccc3ccccc23)Oc2ncn3nc(-c4ccccc4)nc3c21 (configuration not stated) : 1.16

// field: Ratio; key: Clc1ccc(C2c3c(ccc4ccccc34)Oc3ncn4nc(-c5ccccc5)nc4c32)cc1 (configuration not stated) ; value = 1.44

The molecule listed as Cc1nc2c3c(ncn2n1)Oc1ccc2ccccc2c1C3c1ccccc1 (configuration not stated) shows Ratio equal to 1.12

GET /value?item= c1ccc(-c2nc3c4c(ncn3n2)Oc2ccc3ccccc3c2C4c2ccco2)cc1 (configuration not stated) &field=Ratio returns 1.3

# Ratio of CC(C)C1c2c(ccc3ccccc23)Oc2ncn3nc(-c4ccccc4)nc3c21 (configuration not stated) = 1.11

* * *

# Tested on: Escherichia coli
# method.description: Genotoxicity in Escherichia coli PQ37 assessed as ratio of beta-galactosidase/AP activity in presence and absence of drug at 50 ug
# Type: toxicity, organism-based
Answer each item with its documented Ratio.
The reply should be a number, written without any unit.

The observed Ratio for c1ccc(-c2nc3c4c(ncn3n2)Oc2ccc3ccccc3c2C4c2ccco2)cc1 (configuration not stated) when tested with Escherichia coli stands at 1.3

Assay Escherichia coli, sample Cc1nc2c3c(ncn2n1)Oc1ccc2ccccc2c1C3C(C)C (configuration not stated) , Ratio read: 1.39

Reported Ratio (Escherichia coli) for entry Cc1nc2c3c(ncn2n1)Oc1ccc2ccccc2c1C3c1ccccc1 (configuration not stated) is 1.56

Assay Escherichia coli, sample Clc1ccc(C2c3c(ccc4ccccc34)Oc3ncn4nc(-c5ccccc5)nc4c32)cc1 (configuration not stated) , Ratio read: 1.67

Case c1ccc(-c2nc3c4c(ncn3n2)Oc2ccc3ccccc3c2C4c2ccccc2)cc1 (configuration not stated) , Escherichia coli, Ratio recorded as 1.4

Field Ratio (system: Escherichia coli) for entry Clc1ccccc1C1c2c(ccc3ccccc23)Oc2ncn3nc(-c4ccccc4)nc3c21 (configuration not stated) = 1.62

Reported Escherichia coli Ratio for item CC(C)C1c2c(ccc3ccccc23)Oc2ncn3nc(-c4ccccc4)nc3c21 (configuration not stated) was 1.25
